tgt: human NPY Y5 receptor (Homo sapiens)
Construct: expressed in transfected cells
test-details: cAMP production inhibitory activity in CHO cells
Type: cell-based
experimental-setup: against 50 nM NPY inhibition of forskolin stimulated cAMP, CHO cells expressing human NPY Y5 receptor
One threshold, 10 nM, splits the recorded IC50 values: lower ones are True, equal or higher ones are False.

Example cases with answers are listed next.
* CCCCOc1cccc(CNC(=O)C2CCC(NS(=O)(=O)C(C)(C)C)CC2)c1 (stereo not shown) | False
* CC(C)S(=O)(=O)NC1CCC(C(=O)Nc2cccc(OC3CCCC3)c2)CC1 (stereo not shown) | True
* CCCCc1ccc(NC(=O)c2ccc(NS(=O)(=O)C(C)(C)C)cc2)cc1 | False
* CC(C)(C)S(=O)(=O)NC1CCC(C(=O)Nc2ccc(-n3ccc4ccccc43)cc2)CC1 (stereo not shown) | True
* CC(C)(C)S(=O)(=O)NC1CCC(C(=O)Nc2cc(F)cc(F)c2)CC1 (stereo not shown) | False

Could you now consider this next molecule?
Please state whether IC50 is below 10 nM for COC(=O)c1scc(NC(=O)C2CCC(NS(=O)(=O)C(C)(C)C)CC2)c1C(=O)OC (stereo not shown)
False

----------
tgt: human NPY Y5 receptor (Homo sapiens)
Construct: expressed in transfected cells
Sequence (Q15761 1-445): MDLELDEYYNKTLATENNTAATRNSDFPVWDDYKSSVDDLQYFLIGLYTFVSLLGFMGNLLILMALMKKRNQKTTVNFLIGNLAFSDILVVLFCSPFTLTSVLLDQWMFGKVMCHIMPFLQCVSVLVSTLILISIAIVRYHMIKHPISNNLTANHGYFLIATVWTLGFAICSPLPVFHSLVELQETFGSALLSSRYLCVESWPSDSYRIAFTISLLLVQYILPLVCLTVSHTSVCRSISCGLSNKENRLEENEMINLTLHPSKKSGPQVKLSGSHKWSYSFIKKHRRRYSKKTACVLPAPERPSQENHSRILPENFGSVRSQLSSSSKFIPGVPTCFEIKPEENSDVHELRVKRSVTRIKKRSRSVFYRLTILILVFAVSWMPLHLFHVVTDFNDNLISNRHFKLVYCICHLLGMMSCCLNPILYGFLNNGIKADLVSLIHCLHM
test-details: Affinity for NPY Y5 receptor ([125I] peptide YY binding, CHO cell membranes)
experimental-setup: inhibition of specific [125I] peptide YY binding, membranes of CHO cells expressing NPY Y5 receptor
readout-kind: IC50 (nM)
Enter your answer as a number in nM; do not include the unit.

Some compounds with recorded IC50:
• CC(C)(C)S(=O)(=O)NC1CCC(C(=O)Nc2ccc(-c3ccco3)cc2)CC1 (centres unmarked) [Ia-177] = 0.49
• CC(C)(C)S(=O)(=O)NC1CCC(C(=O)Nc2ccc(C(F)(F)F)cc2)CC1 (centres unmarked) [Compound I-212] = 0.67
• COc1ccc(NC(=O)C2CCC(NS(=O)(=O)C(C)(C)C)CC2)c(Sc2ccccc2)n1 (centres unmarked) [Compound I-141] = 0.42
• CC(C)(C)S(=O)(=O)NC1CCC(C(=O)Nc2ccc(-c3cccs3)cc2)CC1 (centres unmarked) [Ia-202] = 0.37
• CC(C)(C)c1ccc(NC(=O)C2CCC(NS(=O)(=O)C(C)(C)C)CC2)cc1 (centres unmarked) [Ia-13] = 1.5
• CC(C)(C)S(=O)(=O)NC1CCC(C(=O)Nc2ccc(F)cc2F)CC1 (centres unmarked) [Ia-135] = 8.2

What value of IC50 has been recorded for this entry: CC(C)(C)S(=O)(=O)NC1CCN(C(=O)Nc2ccc(C3CCCCC3)cc2)CC1 [Ia-221]
0.47

What value of IC50 has been recorded for this entry: CC(C)S(=O)(=O)NC1CCC(C(=O)Nc2ccc(N3CCC(O)(c4ccc(Cl)cc4)CC3)cc2)CC1 (centres unmarked) [Ia-84]
0.25

----------
tgt: human NPY Y5 receptor (Homo sapiens, UniProt Q15761)
Construct: expressed in transfected cells
test-details: Affinity for NPY Y5 receptor ([125I] peptide YY binding, CHO cell membranes)
experimental-setup: inhibition of specific [125I] peptide YY binding, membranes of CHO cells expressing NPY Y5 receptor
readout-kind: log10 IC50 (log10 of the value in nM)
For clarity, the numbers are log10 values of IC50 expressed in nM.

Some molecules with recorded log10 IC50:
- CC(C)CN1C(=O)c2ccc(NC(=O)CCCCNS(=O)(=O)C(C)C)cc2C1=O: -0.20
- CC(C)S(=O)(=O)NC1CCC(C(=O)Nc2ccc(N3C[C@@H](C)O[C@@H](C)C3)nc2)CC1 (some centres unmarked): 0.11
- CC(C)(C)S(=O)(=O)NCCCCC(=O)Nc1ccc2c(c1)C(=O)N(c1ccccc1)C2=O: 0.43
- CC(C)(C)S(=O)(=O)NC1CCN(C(=O)Nc2ccc(N3CCCS3(=O)=O)cc2)CC1: 0.76
- CCCCc1ccc(NC(=O)CCCCNS(=O)(=O)C(C)(C)C)cc1: 0.11

What value of log10 IC50 has been recorded for this entry: CC(C)(C)S(=O)(=O)NC1CCC(C(=O)Nc2ccc3c(c2)C(=O)c2ccccc2-3)CC1 (centres unmarked)
-0.15

What value of log10 IC50 has been recorded for this entry: CC(C)(C)S(=O)(=O)NC1CCC(C(=O)Nc2ccc(-c3ccccc3)cc2)CC1 (centres unmarked)
-0.85

What value of log10 IC50 has been recorded for this entry: CCN(CCNC(=O)C1CCC(NS(=O)(=O)C(C)(C)C)CC1)c1ccccc1 (centres unmarked)
-0.08

----------
tgt: human NPY Y5 receptor (Homo sapiens, UniProt Q15761)
Construct: expressed in transfected cells
test-details: cAMP production inhibitory activity in CHO cells
Type: cell-based
experimental-setup: against 50 nM NPY inhibition of forskolin stimulated cAMP, CHO cells expressing human NPY Y5 receptor
readout-kind: log10 of IC50 (log10 of the value in µM)
For clarity, the numbers are log10 values of IC50 expressed in µM.

Some compounds with recorded log10 of IC50:
- CC(C)(C)S(=O)(=O)NC1CCC(C(=O)Nc2ccc3scnc3c2)CC1 (stereo not drawn): -1.62
- COc1ccc(CCNC(=O)C2CCC(NS(=O)(=O)C(C)(C)C)CC2)cc1OC (stereo not drawn): -1.20
- C[C@@H]1CN(c2ccc(NC(=O)[C@H]3CC[C@H](NS(=O)(=O)C(C)(C)C)CC3)cc2F)C[C@H](C)O1: -1.46
- CC(C)S(=O)(=O)N[C@H]1CC[C@H](C(=O)Nc2ccc3c(c2)C(=O)N(c2ccccc2)C3=O)CC1: -2.52

What value of log10 of IC50 has been recorded for this entry: "CCCCc1ccc(NC(=O)CCCCNS(=O)(=O)C(C)(C)C)cc1"
-2.30

What value of log10 of IC50 has been recorded for this entry: Cc1cc(NC(=O)C2CCC(NS(=O)(=O)C(C)C)CC2)ccc1N1C[C@@H](C)O[C@@H](C)C1 (stereo partly drawn)
-1.62

What value of log10 of IC50 has been recorded for this entry: CC(C)(C)S(=O)(=O)NC1CCC(C(=O)Nc2ccc(C(C#N)c3ccccc3)c(Cl)c2)CC1 (stereo not drawn)
-1.37

What value of log10 of IC50 has been recorded for this entry: CC(C)(C)S(=O)(=O)NC1CCC(C(=O)Nc2ccc(N3CC=CCC3)cc2)CC1 (stereo not drawn)
-1.46

What value of log10 of IC50 has been recorded for this entry: "CCCCc1ccc(NC(=S)CCCCNS(=O)(=O)CC(C)C)cc1"
-1.52

What value of log10 of IC50 has been recorded for this entry: CC(C)(C)S(=O)(=O)NC1CCC(C(=O)Nc2ccc(S(=O)(=O)NC3CCCCC3)cc2)CC1 (stereo not drawn)
-1.06

What value of log10 of IC50 has been recorded for this entry: CC(C)(C)S(=O)(=O)NC1CCC(C(=O)Nc2ccc(N3CCN(c4ccccc4)CC3)cc2)CC1 (stereo not drawn)
-1.68

What value of log10 of IC50 has been recorded for this entry: CC(C)(C)S(=O)(=O)NC1CCC(C(=O)Nc2nnc(-c3ccccc3)s2)CC1 (stereo not drawn)
-2.49

What value of log10 of IC50 has been recorded for this entry: "CC(C)S(=O)(=O)NCCCCC(=O)Nc1ccc(N2CCC(O)(c3ccc(Cl)cc3)CC2)cc1"
-1.96

What value of log10 of IC50 has been recorded for this entry: CC(C)(C)S(=O)(=O)NC1CCC(C(=O)Nc2cccc(OCC3CC3)c2)CC1 (stereo not drawn)
-2.68

What value of log10 of IC50 has been recorded for this entry: CC(C)(C)S(=O)(=O)NC1CCC(C(=O)Nc2ccc(C3CCOCC3)cc2)CC1 (stereo not drawn)
-1.77

What value of log10 of IC50 has been recorded for this entry: CC(C)(C)S(=O)(=O)NC1CCC(C(=O)Nc2ccc(Br)cc2)CC1 (stereo not drawn)
-1.30

What value of log10 of IC50 has been recorded for this entry: CC(C)S(=O)(=O)NC1CCC(C(=O)Nc2ccc(N3C[C@@H](C)O[C@@H](C)C3)cc2)CC1 (stereo partly drawn)
-1.64

What value of log10 of IC50 has been recorded for this entry: CCOc1cccc(NC(=O)C2CCC(NS(=O)(=O)C(C)(C)C)CC2)c1 (stereo not drawn)
-2.06

What value of log10 of IC50 has been recorded for this entry: CCCCc1ccc(NC(=O)C2CCC(NS(=O)(=O)C(C)(C)C)CC2)cc1 (stereo not drawn) [Compound I-22]
-1.29

What value of log10 of IC50 has been recorded for this entry: Cc1ccc2nc(-c3ccc(NC(=O)C4CCC(NS(=O)(=O)C(C)(C)C)CC4)cc3)sc2c1 (stereo not drawn)
-2.08

This collection of values is drawn from patent US7265130B2.
